All figures here come from paper PMC12046049.

Biological target: T1, HSPB5ACD (α-crystallin domain of HSPB5) (human)
T1 chain: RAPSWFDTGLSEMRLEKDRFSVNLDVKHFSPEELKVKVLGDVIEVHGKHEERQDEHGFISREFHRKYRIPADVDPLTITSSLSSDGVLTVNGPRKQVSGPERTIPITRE
Assay: native MS; ACD incubated with C-terminal peptide, peptide titration; 200 mM ammonium acetate pH 6.9; acetonitrile added to the source housing; fit with a Hill slope model for 1:1 binding
Settings: both partners purified
observable: Kd

Query :: Name the recorded Kd for ERTIPITRE (Limits are not printed. 156-164, containing the IPI motif, is taken by convention from the peptide in the HSPB5 ACD-peptide structure PDB 4M5S; check residues come from the IPI motif, not numbered in) [HSPB5 C-terminal peptide (cognate peptide of HSPB5ACD)] .
Result :: ≤ 100 µM
